Data provenance is patent US20250296971A1.

Target: GIPR (CHO-K1-hGIPR cells) (Homo sapiens, UniProt P48546)
Construct: host or cells: CHO-K1
Sequence (P48546 22-466): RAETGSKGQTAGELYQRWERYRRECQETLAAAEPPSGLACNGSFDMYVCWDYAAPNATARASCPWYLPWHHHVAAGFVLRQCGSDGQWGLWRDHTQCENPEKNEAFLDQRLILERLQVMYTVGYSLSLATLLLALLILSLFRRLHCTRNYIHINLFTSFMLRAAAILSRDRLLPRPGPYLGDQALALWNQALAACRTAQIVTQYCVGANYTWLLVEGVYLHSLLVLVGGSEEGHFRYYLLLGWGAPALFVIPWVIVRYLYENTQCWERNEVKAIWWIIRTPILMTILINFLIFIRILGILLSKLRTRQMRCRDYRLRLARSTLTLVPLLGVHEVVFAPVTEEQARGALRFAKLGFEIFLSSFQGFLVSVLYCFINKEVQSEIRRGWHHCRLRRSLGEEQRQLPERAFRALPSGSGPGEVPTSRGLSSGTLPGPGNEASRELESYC
Test: FACS binding assay
Conditions: competition with 20 nM GIP-057, 4° C., 1 hour, read-out: pIC50 Category (converted)
Procedure: In order to determine binding of compounds according to the present invention to GIPR-expressing cells, a FACS binding assay was established. […] Cells were analyzed in an Attune NxT flow cytometer. Median fluorescence intensities (MFI) of the APC/Cy5-channel were calculated by Attune NxT software. […]
*1 amine or outer side, *2 acyl side, *3 side chain or, on linkers, in order; H or OH if unused. Where a SMILES comes first, the peptide text is derived from it. Bridges are numbered along the chain shown (N, C = ends). [ ]: non-standard residue; d: D form. The star is where a group is joined. X11 = O=C(CN1CCN2CCN3CCN(CC1)CC(=O)[O][In]([O]C(=O)C2)[O]C(=O)C3)NCCCOCCOCCOCCCN*; Trp(5-Cl) = N[C@@H](Cc1c[nH]c2ccc(Cl)cc12)C(=O)O; Pyridine(2,6-diCH2) = c1cc(C[*:1])nc(C[*:2])c1; mXylylene = c1cc(C[*:1])cc(C[*:2])c1; X7 = c1cc(CSCCN[*:2])cc(C[*:1])c1; Hyp = O=C(O)[C@@H]1C[C@@H](O)CN1; Suc = O=C(CCC(=O)[*:2])[*:1]; hSer = N[C@@H](CCO)C(=O)O; αMeS = C[C@](N)(CO)C(=O)O; Thp = NC1(C(=O)O)CCOCC1
What IC50 was measured for each of the following?

Here is how some compounds turned out for IC50.
{"compound": "CC[C@H](C)[C@@H]1NC(=O)[C@H](CC(C)C)NC(=O)C2(CCOCC2)NC(=O)[C@@H](NC(=O)[C@@H](CC(C)C)NC(=O)[C@H](CCC(=O)O)NC(=O)[C@@H]2CCCN2C(=O)[C@H](Cc2c[nH]c3ccc(Cl)cc23)NC(=O)[C@H](Cc2c[nH]c3ccccc23)NC(=O)[C@H](CC(=O)O)NC(=O)CCC(=O)NCCCOCCOCCOCCCNC(=O)CN2CCN3CCN4CCN(CC2)CC(=O)[O][In]([O]C(=O)C3)[O]C(=O)C4)CSCc2cccc(c2)CSCCNC1=O [GIP-150] ({X11-Suc}-DW[Trp(5-Cl)]PE[dL]C[Thp]LI; linker 7-C via X7)", "IC50": "< 10 nM"}
{"compound": "CC[C@H](C)[C@@H]1NC(=O)[C@H](CC(C)C)NC(=O)[C@H](C)NC(=O)[C@@H](NC(=O)[C@H](CC(C)C)NC(=O)[C@H](CCC(=O)O)NC(=O)[C@@H]2CCCN2C(=O)[C@H](Cc2c[nH]c3ccccc23)NC(=O)[C@H](Cc2c[nH]c3ccccc23)NC(=O)[C@H](CC(=O)O)NC(C)=O)CSCc2cccc(c2)CSC[C@@H](C(N)=O)NC1=O [GIP-244] (Ac-DWWPELCALIC-NH2; linker 7-11 via mXylylene)", "IC50": "10 to 79.4 nM"}
{"compound": "CC[C@H](C)[C@@H]1NC(=O)[C@H](CC(C)C)NC(=O)C2(CCOCC2)NC(=O)[C@@H](NC(=O)[C@@H](CC(C)C)NC(=O)[C@H](CCC(=O)O)NC(=O)[C@@H]2C[C@@H](O)CN2C(=O)[C@H](Cc2c[nH]c3ccc(Cl)cc23)NC(=O)[C@H](Cc2c[nH]c3ccccc23)NC(=O)[C@H](CCO)NC(C)=O)CSCc2cccc(n2)CSC[C@@H](C(N)=O)NC1=O [GIP-195] (Ac-[hSer]W[Trp(5-Cl)][Hyp]E[dL]C[Thp]LIC-NH2; linker 7-11 via Pyridine(2,6-diCH2))", "IC50": "< 10 nM"}

Would you kindly look at the next entry?
Task item: Item under review: CC[C@H](C)[C@@H]1NC(=O)[C@H](CC(C)C)NC(=O)[C@](C)(CO)NC(=O)[C@@H](NC(=O)[C@@H](CC(C)C)NC(=O)[C@H](CCC(=O)O)NC(=O)[C@@H]2CCCN2C(=O)[C@H](Cc2c[nH]c3ccc(Cl)cc23)NC(=O)[C@H](Cc2c[nH]c3ccccc23)NC(=O)[C@H](CC(=O)O)NC(=O)CCC(=O)NCCCOCCOCCOCCCNC(=O)CN2CCN3CCN4CCN(CC2)CC(=O)[O][In]([O]C(=O)C3)[O]C(=O)C4)CSCc2cccc(c2)CSCCNC1=O [GIP-149] ({X11-Suc}-DW[Trp(5-Cl)]PE[dL]C[αMeS]LI; linker 7-C via X7) . Reported IC50?
Reply: < 10 nM
